Target: UniProt P49841
Assay: Inhibition of recombinant GST-tagged GSK-3beta (unknown origin) expressed in Escherichia coli BL21 assessed as phosphate incorporation in CREB
Sequence (P49841 whole entry): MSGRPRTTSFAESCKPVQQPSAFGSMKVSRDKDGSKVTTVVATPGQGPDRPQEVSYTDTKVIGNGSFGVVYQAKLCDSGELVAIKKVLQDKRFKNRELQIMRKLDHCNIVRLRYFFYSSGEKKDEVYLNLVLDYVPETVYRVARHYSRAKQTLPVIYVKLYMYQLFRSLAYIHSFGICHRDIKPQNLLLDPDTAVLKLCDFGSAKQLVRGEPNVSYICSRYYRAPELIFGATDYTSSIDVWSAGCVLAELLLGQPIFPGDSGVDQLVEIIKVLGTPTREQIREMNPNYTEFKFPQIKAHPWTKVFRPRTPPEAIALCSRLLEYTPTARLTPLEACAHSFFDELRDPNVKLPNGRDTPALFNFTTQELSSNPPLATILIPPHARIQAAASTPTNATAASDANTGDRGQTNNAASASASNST
VALUE_TYPE: pIC50
By convention, pIC50 is the negative base-10 log of a molar concentration.

QUERY_SMILES	TEST_VALUE
O=C1NC(=O)C(c2nn(CCCN3CCOCC3)c3ncccc23)=C1c1c[nH]c2ccccc12	6.08
Cn1cc(C2=C(c3nn(CCCO)c4ncccc34)C(=O)NC2=O)c2ccccc21	5.96
Cn1cc(C2=C(c3nn(CCN4CCOCC4)c4ncccc34)C(=O)NC2=O)c2ccccc21	6.44
CC(C)n1cc(C2=C(c3nn(CCCN4CCOCC4)c4ncccc34)C(=O)NC2=O)c2ccccc21	6.42
O=C1NC(=O)C(c2nn(CCCN3CCOCC3)c3ncccc23)=C1c1cn(CCCn2ccnc2)c2ccccc12	6.17

QUERY: # get_value(readout='pIC50', item= `CN(C)CCCn1nc(C2=C(c3cn(C)c4ccccc34)C(=O)NC2=O)c2cccnc21` )
RESULT: 5.24

QUERY: # get_value(readout='pIC50', item= `Cn1cc(C2=C(c3nn(CCCN4CCOCC4)c4ncccc34)C(=O)NC2=O)c2ccccc21` )
RESULT: 6.12

QUERY: # get_value(readout='pIC50', item= `Cn1cc(C2=C(c3nn(CCCCN4CCOCC4)c4ncccc34)C(=O)NC2=O)c2ccccc21` )
RESULT: 6.34

QUERY: # get_value(readout='pIC50', item= `O=C1NC(=O)C(c2n[nH]c3ncccc23)=C1c1c[nH]c2ccccc12` )
RESULT: 5.14

---

Biological target: Dual specificity mitogen-activated protein kinase kinase 1 (Homo sapiens)
Sequence (Q02750 whole entry): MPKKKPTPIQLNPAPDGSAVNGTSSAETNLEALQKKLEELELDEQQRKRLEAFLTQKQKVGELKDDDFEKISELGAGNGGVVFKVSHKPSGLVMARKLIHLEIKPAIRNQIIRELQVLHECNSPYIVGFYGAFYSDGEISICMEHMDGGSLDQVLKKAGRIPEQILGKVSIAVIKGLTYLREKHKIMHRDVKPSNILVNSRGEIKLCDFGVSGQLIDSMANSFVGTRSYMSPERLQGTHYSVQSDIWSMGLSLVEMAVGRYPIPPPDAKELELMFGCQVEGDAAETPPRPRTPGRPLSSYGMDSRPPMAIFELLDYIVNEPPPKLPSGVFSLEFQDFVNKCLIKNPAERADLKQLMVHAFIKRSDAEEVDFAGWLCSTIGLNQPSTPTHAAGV
Assay: Inhibition of recombinant MEK1 (unknown origin) expressed in Escherichia coli
This listing pairs compounds with measured IC50.

QUERY: // map `CC(C)n1cc(C2=C(c3nn(CCCN4CCOCC4)c4ncccc34)C(=O)NC2=O)c2ccccc21` to recorded IC50 (system: Dual specificity mitogen-activated protein kinase kinase 1 (Homo sapiens))
RESULT: > 40 µM

QUERY: // map `Cn1cc(C2=C(c3nn(CCn4ccnc4)c4ncccc34)C(=O)NC2=O)c2ccccc21` to recorded IC50 (system: Dual specificity mitogen-activated protein kinase kinase 1 (Homo sapiens))
RESULT: > 40 µM

QUERY: // map `Cn1cc(C2=C(c3nn(CCN4CCOCC4)c4ncccc34)C(=O)NC2=O)c2ccccc21` to recorded IC50 (system: Dual specificity mitogen-activated protein kinase kinase 1 (Homo sapiens))
RESULT: > 40 µM

---

Target: Glycogen synthase kinase-3 beta (Homo sapiens, UniProt P49841)
Assay: Inhibition of GSK-3beta in human SH-SY5Y cells assessed as reduction of amyloid beta (25 to 35)-induced Tau hyperphosphorylation at Ser396 at 10 uM incubated for 1 hr prior to amyloid beta (25 to 35) induction measured after 6 hrs by Western blotting analysis
Format: cell-based
Sequence (P49841 whole entry, looked up): as the sequence (P49841 whole entry) above
Activity calls are given as the source filed them. No cut-off for these calls is given here.
Respond only with the outcome that fits, drawn from active, inactive

Answered examples (5):
QUERY_SMILES	TESTED_SYSTEM	CLASS_ASSIGNMENT
Cn1cc(C2=C(c3nn(CCCN4CCOCC4)c4ncccc34)C(=O)NC2=O)c2ccccc21	Glycogen synthase kinase-3 beta (Homo sapiens, UniProt P49841)	active
CC(C)n1cc(C2=C(c3nn(CCCN4CCOCC4)c4ncccc34)C(=O)NC2=O)c2ccccc21	Glycogen synthase kinase-3 beta (Homo sapiens, UniProt P49841)	active
Cn1cc(C2=C(c3nn(CCCO)c4ncccc34)C(=O)NC2=O)c2ccccc21	Glycogen synthase kinase-3 beta (Homo sapiens, UniProt P49841)	active
Cn1cc(C2=C(c3nn(CCn4ccnc4)c4ncccc34)C(=O)NC2=O)c2ccccc21	Glycogen synthase kinase-3 beta (Homo sapiens, UniProt P49841)	active
O=C1NC(=O)C(c2nn(CCCN3CCOCC3)c3ncccc23)=C1c1cn(CCCn2ccnc2)c2ccccc12	Glycogen synthase kinase-3 beta (Homo sapiens, UniProt P49841)	inactive

QUERY: Could you kindly confirm the outcome this assay logged for `O=C1NC(=O)C(c2nn(CCCN3CCOCC3)c3ncccc23)=C1c1cn(CCCN2CCOCC2)c2ccccc12` ?
RESULT: inactive

QUERY: Could you kindly confirm the outcome this assay logged for `Cn1cc(C2=C(c3nn(CCN4CCOCC4)c4ncccc34)C(=O)NC2=O)c2ccccc21` ?
RESULT: active

QUERY: Could you kindly confirm the outcome this assay logged for `O=C1NC(=O)C(c2nn(CCCN3CCOCC3)c3ncccc23)=C1c1c[nH]c2ccccc12` ?
RESULT: active

---

Target: UniProt P49841
Assay: Inhibition of recombinant GST-tagged GSK-3beta (unknown origin) expressed in Escherichia coli BL21 assessed as phosphate incorporation in CREB at 20 ug/mL relative to control
This listing pairs molecules with measured inhibition.
Reply numerically in %, unit not repeated.

Below, each entry is followed by its recorded inhibition result.
QUERY_SMILES	TESTED_SYSTEM	TEST_VALUE
NC(=O)NN1C(=O)C(c2c[nH]c3ccccc23)=C(c2n[nH]c3ncccc23)C1=O	UniProt P49841	-6.81
NN1C(=O)C(c2c[nH]c3ccccc23)=C(c2n[nH]c3ncccc23)C1=O	UniProt P49841	28.6

QUERY: # get_value(readout='inhibition', item= `O=C1C(c2c[nH]c3ccccc23)=C(c2n[nH]c3ncccc23)C(=O)N1c1ccccc1` )
RESULT: 4.14

QUERY: # get_value(readout='inhibition', item= `NC(=S)NN1C(=O)C(c2c[nH]c3ccccc23)=C(c2n[nH]c3ncccc23)C1=O` )
RESULT: 33.7

QUERY: # get_value(readout='inhibition', item= `COC(=O)CN1C(=O)C(c2c[nH]c3ccccc23)=C(c2n[nH]c3ncccc23)C1=O` )
RESULT: 51.5

QUERY: # get_value(readout='inhibition', item= `O=CNN1C(=O)C(c2c[nH]c3ccccc23)=C(c2n[nH]c3ncccc23)C1=O` )
RESULT: -7.42

QUERY: # get_value(readout='inhibition', item= `CC(C)CN1C(=O)C(c2c[nH]c3ccccc23)=C(c2n[nH]c3ncccc23)C1=O` )
RESULT: 45.7

---

Target: Protein kinase C epsilon type (Homo sapiens)
Sequence (Q02156 whole entry): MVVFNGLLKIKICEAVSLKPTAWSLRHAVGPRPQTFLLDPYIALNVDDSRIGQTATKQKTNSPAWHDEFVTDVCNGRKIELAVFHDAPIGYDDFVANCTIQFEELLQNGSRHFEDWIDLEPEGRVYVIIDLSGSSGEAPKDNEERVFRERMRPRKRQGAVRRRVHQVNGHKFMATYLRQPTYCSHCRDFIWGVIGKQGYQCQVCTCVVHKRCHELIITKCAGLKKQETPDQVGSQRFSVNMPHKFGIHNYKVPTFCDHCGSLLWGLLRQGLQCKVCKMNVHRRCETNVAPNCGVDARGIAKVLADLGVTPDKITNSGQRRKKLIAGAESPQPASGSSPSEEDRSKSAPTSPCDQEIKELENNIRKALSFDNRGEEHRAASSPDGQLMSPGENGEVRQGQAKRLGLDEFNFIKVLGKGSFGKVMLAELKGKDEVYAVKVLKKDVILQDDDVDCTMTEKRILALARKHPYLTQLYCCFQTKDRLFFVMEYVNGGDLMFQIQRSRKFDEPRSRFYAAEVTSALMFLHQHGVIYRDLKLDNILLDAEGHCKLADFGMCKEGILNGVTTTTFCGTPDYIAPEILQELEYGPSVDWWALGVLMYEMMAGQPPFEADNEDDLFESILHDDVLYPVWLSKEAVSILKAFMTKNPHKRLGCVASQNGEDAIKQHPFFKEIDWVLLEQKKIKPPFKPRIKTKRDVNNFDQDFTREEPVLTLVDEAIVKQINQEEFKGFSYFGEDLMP
Experiment: Inhibition of recombinant PKCE (unknown origin) expressed in baculovirus expression system
VALUE_TYPE: IC50

Below, each entry is followed by its recorded IC50 result.
QUERY_SMILES	IC50
CC(C)n1cc(C2=C(c3nn(CCCN4CCOCC4)c4ncccc34)C(=O)NC2=O)c2ccccc21	> 40 µM
Cn1cc(C2=C(c3nn(CCn4ccnc4)c4ncccc34)C(=O)NC2=O)c2ccccc21	> 40 µM

Lab note: next compound to report on.
QUERY: # get_value(readout='IC50', item= `Cn1cc(C2=C(c3nn(CCN4CCOCC4)c4ncccc34)C(=O)NC2=O)c2ccccc21` )
RESULT: > 40 µM

---

Target: Aurora kinase A (Homo sapiens, UniProt O14965)
Sequence (O14965 whole entry): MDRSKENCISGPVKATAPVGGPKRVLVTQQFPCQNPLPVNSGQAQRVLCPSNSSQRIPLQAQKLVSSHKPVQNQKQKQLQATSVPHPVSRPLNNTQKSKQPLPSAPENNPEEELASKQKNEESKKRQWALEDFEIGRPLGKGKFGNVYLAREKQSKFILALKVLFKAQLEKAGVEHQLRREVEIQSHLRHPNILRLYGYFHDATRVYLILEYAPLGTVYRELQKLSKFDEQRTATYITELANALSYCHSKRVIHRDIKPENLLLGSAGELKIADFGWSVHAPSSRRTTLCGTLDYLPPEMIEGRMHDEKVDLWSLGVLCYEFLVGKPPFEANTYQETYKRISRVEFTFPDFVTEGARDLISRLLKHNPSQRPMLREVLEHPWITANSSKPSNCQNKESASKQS
Experiment: Inhibition of recombinant aurora kinase A (unknown origin) expressed in Escherichia coli
VALUE_TYPE: IC50

QUERY: # get_value(readout='IC50', item= `Cn1cc(C2=C(c3nn(CCn4ccnc4)c4ncccc34)C(=O)NC2=O)c2ccccc21` )
RESULT: > 40 µM

QUERY: # get_value(readout='IC50', item= `Cn1cc(C2=C(c3nn(CCN4CCOCC4)c4ncccc34)C(=O)NC2=O)c2ccccc21` )
RESULT: > 40 µM

QUERY: # get_value(readout='IC50', item= `CC(C)n1cc(C2=C(c3nn(CCCN4CCOCC4)c4ncccc34)C(=O)NC2=O)c2ccccc21` )
RESULT: > 40 µM

---

Target: Glycogen synthase kinase-3 beta (Homo sapiens, UniProt P49841)
Test: Inhibition of recombinant GST-tagged GSK-3beta (unknown origin) expressed in Escherichia coli BL21 assessed as phosphate incorporation in CREB
VALUE_TYPE: pIC50
By convention, pIC50 is the negative base-10 log of a molar concentration.

Below, each entry is followed by its recorded pIC50 result.
QUERY_SMILES	VALUE_TYPE	TEST_VALUE
Cn1cc(C2=C(c3nn(CCCn4ccnc4)c4ncccc34)C(=O)NC2=O)c2ccccc21	pIC50	5.31
Cn1cc(C2=C(c3nn(CCCCn4ccnc4)c4ncccc34)C(=O)NC2=O)c2ccccc21	pIC50	6.02
O=C1NC(=O)C(c2nn(CCCN3CCOCC3)c3ncccc23)=C1c1cn(Cc2ccccc2)c2ccccc12	pIC50	5.72
Cn1cc(C2=C(c3nn(CCn4ccnc4)c4ncccc34)C(=O)NC2=O)c2ccccc21	pIC50	6.09
C=CCn1cc(C2=C(c3nn(CCCN4CCOCC4)c4ncccc34)C(=O)NC2=O)c2ccccc21	pIC50	6.02
C=Cn1cc(C2=C(c3nn(CCCN4CCOCC4)c4ncccc34)C(=O)NC2=O)c2ccccc21	pIC50	5.05

QUERY: # get_value(readout='pIC50', item= `Cn1cc(C2=C(c3nn(CCCN4CCCCC4)c4ncccc34)C(=O)NC2=O)c2ccccc21` )
RESULT: 5.58

QUERY: # get_value(readout='pIC50', item= `O=C1NC(=O)C(c2nn(CCCN3CCOCC3)c3ncccc23)=C1c1cn(CCCN2CCOCC2)c2ccccc12` )
RESULT: 5.89

QUERY: # get_value(readout='pIC50', item= `Cn1cc(C2=C(c3n[nH]c4ncccc34)C(=O)NC2=O)c2ccccc21` )
RESULT: 4.91

QUERY: # get_value(readout='pIC50', item= `CN1CCN(CCCn2nc(C3=C(c4cn(C)c5ccccc45)C(=O)NC3=O)c3cccnc32)CC1` )
RESULT: 5.48
